A collection of molecules and their measured z-score
Assay: E. coli acrAB mutant growth effects, primary screen, E. coli filamentation inducers, strain DRC39, OD650, 48 h (AID 1179);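 note: screen aims at cell division blockers that make cells filament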
Settings: E. coli DRC39 delta-acrAB growth, higher = more signal, called active from +8 up or from −8 down
Give the value as a plain number.

What the record says about `C=C/C=C/[C@@H]1C(=C)CN([C@@H](Cc2ccccc2)C(=O)OC)[C@H]1[C@@H](O)Cc1ccccc1` : z-score is -0.45

What the record says about `CC(C)(C)OC(=O)CC[C@]1(C(=O)N2CCCCC2)COC(c2ccc(OCCCO)cc2)=N1` : z-score is 0.139

What the record says about `Cc1ccc(F)cc1S(=O)(=O)N[C@@H]1CCN(Cc2cccc3[nH]ccc23)C1` : z-score is -1.32

New cases:
What the record says about `C=CCOC(=O)[C@H]1[C@@H]2C(=O)O[C@@H](c3ccccc3)[C@@H](c3ccccc3)N2[C@@H](c2ccc(OCCOC(=O)[C@H]3C[C@H]4C(=O)N[C@@H](CCCCNC(C)=O)C(=O)N4[C@H]3c3cccc(OCCO)c3)cc2)[C@]12C(=O)Nc1ccc(I)cc12` : z-score is -1.2

What the record says about `O=C(N1CCOCC1)[C@@]1(CCS(=O)(=O)c2ccccc2)N=C(c2ccc(OCCCO)cc2)O[C@H]1c1ccccc1` : z-score is 0.0231

What the record says about `C=CCN1C(=O)[C@]2(O[C@H](CCO)[C@@H]([Si](C)(C)c3ccc(OC)cc3)[C@@H]2C)c2cc(NC(=O)c3ccc(OC)cc3)ccc21` : z-score is -0.723

What the record says about `COCCCNC(=O)[C@@H]1c2ccccc2C(=O)N(C2Cc3ccccc3C2)[C@H]1c1ccc(CO)cc1` : z-score is 0.468

What the record says about Cc1ccc(C(C)CC(O)C2C=CC3C(=O)N(c4ccccc4)C(=O)C3N2Nc2ccc(C#N)cc2)o1 (configuration not stated) : z-score is 1.14

What the record says about CC(C)CCC[C@@H](C)[C@H]1CC[C@@]2(C)C3=C(CC[C@]12C)[C@@]1(C)CC[C@H](OC(=O)c2ccccc2)C(C)(C)C1CC3 (some centres not stated) : z-score is 1.57

What the record says about `COC(=O)C(CC#Cc1ccc2c(c1)[C@]1(C(=O)N2)[C@H](C(=O)Nc2nc3ccccc3s2)[C@H]2C(=O)O[C@H](c3ccccc3)[C@H](c3ccccc3)N2[C@@H]1c1ccc(OCCO)cc1)C(=O)OC` : z-score is 1.42

What the record says about COc1ccc(C(O)C2C=CC3C(=O)N(c4ccccc4)C(=O)C3N2Nc2ccccc2F)cc1 (configuration not stated) : z-score is -0.869

What the record says about `O=C1O[C@H](c2ccccc2)[C@H](c2ccccc2)N2[C@H]1[C@@H](C(=O)N1CCCCCCC1)[C@]1(C(=O)Nc3ccc(C#CC4(O)CCCCCC4)cc31)[C@H]2c1ccc(O)cc1` : z-score is 0.163
